biological target: RORγt (Homo sapiens, UniProt P51449); experiment: RORγt binding test using fluorescent-labeled synthetic ligand (TR-FRET); conditions: test compound 1 μM; read-out: binding inhibitory rate (%) of fluorescent-labeled synthetic ligand to RORγt at test compound 1 μM
Sequence (P51449 1-497 isoform P51449-2, species assumed): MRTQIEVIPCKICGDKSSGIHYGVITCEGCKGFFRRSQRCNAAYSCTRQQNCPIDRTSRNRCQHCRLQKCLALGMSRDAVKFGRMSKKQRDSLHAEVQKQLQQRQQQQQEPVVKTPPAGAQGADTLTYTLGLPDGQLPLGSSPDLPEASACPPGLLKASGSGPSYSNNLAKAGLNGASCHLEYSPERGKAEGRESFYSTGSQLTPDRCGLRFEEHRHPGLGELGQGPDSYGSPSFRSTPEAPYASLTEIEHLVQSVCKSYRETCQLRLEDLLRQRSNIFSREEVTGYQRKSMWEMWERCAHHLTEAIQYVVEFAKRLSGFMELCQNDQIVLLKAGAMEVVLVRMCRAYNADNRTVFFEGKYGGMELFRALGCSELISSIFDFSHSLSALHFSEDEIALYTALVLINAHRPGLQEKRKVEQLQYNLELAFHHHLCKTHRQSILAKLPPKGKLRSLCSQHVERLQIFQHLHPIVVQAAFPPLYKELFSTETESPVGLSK
Where a name gives a salt, the structure may show the parent alone.
property-name: inhibition at 1 µM (%)

>  <compound>
CC(C)n1c(=O)n(CC2CC2)c(=O)c2cc(NC(=O)N3CCC[C@@H](N4Cc5ccc(Cl)cc5C4=O)C3)c(F)cc21

>  <reading-unit>
%

>  <test-result>
102

$$$$
>  <compound>
CC(C)n1c(=O)n(CC2CC2)c(=O)c2cc(NC(=O)N3CCNC(C(=O)Nc4ccc(C#N)c(F)c4)C3)ccc21 (stereo not shown) [Example 92, hydrochloride]

>  <reading-unit>
%

>  <test-result>
102

$$$$
>  <compound>
CC(C)n1c(=O)n(CC2CC2(F)F)c(=O)c2cc(NC(=O)N3CCOC(C(=O)Nc4ccc(C#N)c(Cl)c4)C3)c(F)cc21 (single isomer, unassigned)

>  <reading-unit>
%

>  <test-result>
102

$$$$
>  <compound>
CC(C)n1c(=O)n(CC2CC2)c(=O)c2cc(NC(=O)[C@@H]3CCC[C@@H]3NC(=O)c3ccc(C#N)cc3)ccc21

>  <reading-unit>
%

>  <test-result>
102

$$$$
>  <compound>
CC(C)n1c(=O)n(CC2CC2)c(=O)c2cc(NC(=O)N3CCO[C@@H](C(=O)Nc4cc(F)c(C#N)cc4F)C3)ccc21

>  <reading-unit>
%

>  <test-result>
102

$$$$
>  <compound>
CC(C)n1c(=O)n(CC2CC2)c(=O)c2cc(NC(=O)N3CCC[C@@H](n4cnc5cc(C#N)ccc5c4=O)C3)c(F)cc21

>  <reading-unit>
%

>  <test-result>
102

$$$$
>  <compound>
CC(C)n1c(=O)n(CC2CC2)c(=O)c2cc(NC(=O)N3CCO[C@@H](C(=O)Nc4cnc(C#N)c(F)c4)C3)ccc21

>  <reading-unit>
%

>  <test-result>
101

$$$$
>  <compound>
COC(=O)c1ccc(C(=O)NC2CCCN(C(=O)Nc3ccc4c(c3)c(=O)n(CC3CC3)c(=O)n4C(C)C)C2)cc1 (stereo not shown)

>  <reading-unit>
%

>  <test-result>
102

$$$$
>  <compound>
CC(C)n1c(=O)n(CC2CC2)c(=O)c2cc(NC(=O)N3CCO[C@@H](C(=O)Nc4cc(F)c(C#N)cc4F)C3)c(F)cc21

>  <reading-unit>
%

>  <test-result>
101

$$$$
>  <compound>
CC(C)n1c(=O)n(CC2CC2)c(=O)c2cc(NC(=O)N3CCO[C@@H](C(=O)Nc4cnc(C#N)c(Cl)c4)C3)c(F)cc21

>  <reading-unit>
%

>  <test-result>
102

$$$$
>  <compound>
CC(C)n1c(=O)n(CC2CC2)c(=O)c2cc(NC(=O)N3CCCC(NC(=O)c4ccc(C#N)cc4)C3)ccc21 (stereo not shown)

>  <reading-unit>
%

>  <test-result>
102

$$$$
>  <compound>
CC(C)n1c(=O)n(CC2CCOC2)c(=O)c2cc(NC(=O)N3CCO[C@@H](C(=O)Nc4ccc(C#N)c(Cl)c4)C3)c(F)cc21 (stereo partly shown)

>  <reading-unit>
%

>  <test-result>
101

$$$$
>  <compound>
CC(C)n1c(=O)n(CC2CC2)c(=O)c2cc(NC(=O)N3CCC[C@@H](NC(=O)c4ccc5c(c4)CCN(C(=O)OC(C)(C)C)C5)C3)c(F)cc21

>  <reading-unit>
%

>  <test-result>
98

$$$$

Reference source: patent US10000488B2
